Value source: patent US10246411B2

For each record, write down the corresponding log10(GI50).
Note the log scale: values are log10 of GI50 expressed in nM.

Reported log10(GI50) (SF-539) for entry COc1ccc(/C=C\c2cc(OC)c(OC)c(OC)c2)c(NS(=O)(=O)c2ccc(Cl)cc2)c1O [17c] is 1.57

Hey, SF-539 data for COc1ccc(S(=O)(=O)Nc2c(/C=C\c3cc(OC)c(OC)c(OC)c3)ccc(OC)c2O)cc1 [17a] : log10(GI50) came out at 1.47

Entry COc1ccc(S(=O)(=O)Nc2cc(/C=C\c3cc(OC)c(OC)c(OC)c3)ccc2OC)cc1 [12a] ; assay system SF-539; log10(GI50) recorded at 2.10

Let me check: COc1ccc(S(=O)(=O)Nc2cc(/C=C\c3cc(OC)c(OC)c(OC)c3)cc(OC)c2OC)cc1 [13a] , system SF-539, measured log10(GI50) is 1.40

Reported SF-539 log10(GI50) for item COc1cc(/C=C\c2cc(OC)c(OC)c(OC)c2)cc(NS(=O)(=O)c2ccc(Cl)cc2)c1OC [13c] was 2.48

* * *

What GI50 was measured for each of the following?
Report field: quantity (unit follows the number).

Value (GI50, SK-MEL-2) for record COc1ccc(/C=C\c2cc(OC)c(OC)c(OC)c2)c(NS(=O)(=O)c2ccc(Cl)cc2)c1O [17c] = 65.9 nM

The reported GI50 value, SK-MEL-2, for COc1cc(/C=C\c2cc(OC)c(OC)c(OC)c2)cc(NS(=O)(=O)c2ccc(Cl)cc2)c1OC [13c] reads 613 nM

Bench note, SK-MEL-2: COc1ccc(S(=O)(=O)Nc2c(/C=C\c3cc(OC)c(OC)c(OC)c3)ccc(OC)c2O)cc1 [17a] , GI50 reads 43.7 nM

Observed GI50 on SK-MEL-2, entry COc1ccc(S(=O)(=O)Nc2cc(/C=C\c3cc(OC)c(OC)c(OC)c3)cc(OC)c2OC)cc1 [13a] , equals 37.4 nM

Field GI50 (system: SK-MEL-2) for entry COc1ccc(S(=O)(=O)Nc2cc(/C=C\c3cc(OC)c(OC)c(OC)c3)ccc2OC)cc1 [12a] = 80.3 nM

* * *

Reported log10 GI50 values, M14.
// units: nM (pre-log); metric: GI50; scale: log10

Value of log10 GI50 reported for the compound COc1ccc(S(=O)(=O)Nc2cc(/C=C\c3cc(OC)c(OC)c(OC)c3)ccc2OC)cc1 [12a] is 2.01

Entry COc1ccc(/C=C\c2cc(OC)c(OC)c(OC)c2)c(NS(=O)(=O)c2ccc(Cl)cc2)c1O [17c] ; log10 GI50 = 1.96

# log10 GI50 of COc1cc(/C=C\c2cc(OC)c(OC)c(OC)c2)cc(NS(=O)(=O)c2ccc(Cl)cc2)c1OC [13c] = 2.59

Entry COc1ccc(S(=O)(=O)Nc2c(/C=C\c3cc(OC)c(OC)c(OC)c3)ccc(OC)c2O)cc1 [17a] , log10 GI50 reported as 1.50

log10 GI50 for COc1ccc(S(=O)(=O)Nc2cc(/C=C\c3cc(OC)c(OC)c(OC)c3)cc(OC)c2OC)cc1 [13a] is 1.48

* * *

# Tested on: MCF7
PROPERTY MEASURED: GI50 (nM)
Could you give me the number in nM? Just the number is fine.

Briefly, GI50 measured for COc1cc(/C=C\c2cc(OC)c(OC)c(OC)c2)cc(NS(=O)(=O)c2ccc(Cl)cc2)c1OC [13c] : 375

Lab note: measured GI50 of COc1ccc(/C=C\c2cc(OC)c(OC)c(OC)c2)c(NS(=O)(=O)c2ccc(Cl)cc2)c1O [17c] was 38.4

Looking up COc1ccc(S(=O)(=O)Nc2cc(/C=C\c3cc(OC)c(OC)c(OC)c3)ccc2OC)cc1 [12a] , I see its GI50 listed as 42.6

For this molecule ( COc1ccc(S(=O)(=O)Nc2cc(/C=C\c3cc(OC)c(OC)c(OC)c3)cc(OC)c2OC)cc1 [13a] ), measured GI50 is 36

GI50 reading for COc1ccc(S(=O)(=O)Nc2c(/C=C\c3cc(OC)c(OC)c(OC)c3)ccc(OC)c2O)cc1 [17a] : 38

* * *

Can you tell me log10 of GI50 for the items I'm about to list?
Hey, these are logged values: log10 of GI50, µM being the unit before logging.

Log: ACHN, molecule COc1cc(/C=C\c2cc(OC)c(OC)c(OC)c2)cc(NS(=O)(=O)c2ccc(Cl)cc2)c1OC [13c] , log10 of GI50 = -0.23

Entry COc1ccc(S(=O)(=O)Nc2cc(/C=C\c3cc(OC)c(OC)c(OC)c3)ccc2OC)cc1 [12a] under ACHN had log10 of GI50 of -1.23

COc1ccc(/C=C\c2cc(OC)c(OC)c(OC)c2)c(NS(=O)(=O)c2ccc(Cl)cc2)c1O [17c] on ACHN gives log10 of GI50 = -1.08

So the reported log10 of GI50 for COc1ccc(S(=O)(=O)Nc2cc(/C=C\c3cc(OC)c(OC)c(OC)c3)cc(OC)c2OC)cc1 [13a] , on ACHN, turned out to be -1.24

Log: ACHN, molecule COc1ccc(S(=O)(=O)Nc2c(/C=C\c3cc(OC)c(OC)c(OC)c3)ccc(OC)c2O)cc1 [17a] , log10 of GI50 = -1.21

* * *

For each of the compounds below, state its GI50.
# number only, unit nM dropped from output

Per the reported OVCAR-4 data, COc1ccc(S(=O)(=O)Nc2cc(/C=C\c3cc(OC)c(OC)c(OC)c3)cc(OC)c2OC)cc1 [13a] has GI50 of 84.2

Form field, GI50 with OVCAR-4, item COc1ccc(S(=O)(=O)Nc2c(/C=C\c3cc(OC)c(OC)c(OC)c3)ccc(OC)c2O)cc1 [17a] : 76.3

Note to self: GI50 of COc1ccc(S(=O)(=O)Nc2cc(/C=C\c3cc(OC)c(OC)c(OC)c3)ccc2OC)cc1 [12a] with OVCAR-4 was 581

Hey, OVCAR-4 data for COc1ccc(/C=C\c2cc(OC)c(OC)c(OC)c2)c(NS(=O)(=O)c2ccc(Cl)cc2)c1O [17c] : GI50 came out at 97.2

The measured GI50 that COc1cc(/C=C\c2cc(OC)c(OC)c(OC)c2)cc(NS(=O)(=O)c2ccc(Cl)cc2)c1OC [13c] showed for OVCAR-4 is 1530

* * *

# Test system: SK-OV-3
# MEASUREMENT NOTES: In vitro cytotoxicity (NCI protocol, SRB), SK-OV-3
# CONDITION DESCRIPTION: Homo sapiens, SK-OV-3, 48 h
PROPERTY MEASURED: log10 GI50 (log10 of the value in nM)
Note: values are log10 of GI50 expressed in nM.

Input COc1ccc(S(=O)(=O)Nc2cc(/C=C\c3cc(OC)c(OC)c(OC)c3)cc(OC)c2OC)cc1 [13a] . Output log10 GI50: 1.58

Reported log10 GI50 of COc1ccc(S(=O)(=O)Nc2c(/C=C\c3cc(OC)c(OC)c(OC)c3)ccc(OC)c2O)cc1 [17a] : 1.47

Entry under test: COc1ccc(S(=O)(=O)Nc2cc(/C=C\c3cc(OC)c(OC)c(OC)c3)ccc2OC)cc1 [12a] . Its log10 GI50 was 1.98

Memo: COc1cc(/C=C\c2cc(OC)c(OC)c(OC)c2)cc(NS(=O)(=O)c2ccc(Cl)cc2)c1OC [13c] , reported log10 GI50: 2.65

Sample COc1ccc(/C=C\c2cc(OC)c(OC)c(OC)c2)c(NS(=O)(=O)c2ccc(Cl)cc2)c1O [17c] ; log10 GI50 observed: 2.36

* * *

PROPERTY MEASURED: log10(GI50) (log10 of the value in nM)
For clarity, the numbers are log10 values of GI50 expressed in nM.

Param item: COc1ccc(S(=O)(=O)Nc2cc(/C=C\c3cc(OC)c(OC)c(OC)c3)ccc2OC)cc1 [12a] ; param system: MOLT-4; output log10(GI50): 2.59

Entry COc1ccc(S(=O)(=O)Nc2c(/C=C\c3cc(OC)c(OC)c(OC)c3)ccc(OC)c2O)cc1 [17a] ; assay system MOLT-4; log10(GI50) recorded at 1.63

Bench note, MOLT-4: COc1ccc(/C=C\c2cc(OC)c(OC)c(OC)c2)c(NS(=O)(=O)c2ccc(Cl)cc2)c1O [17c] , log10(GI50) reads 1.50

Item COc1ccc(S(=O)(=O)Nc2cc(/C=C\c3cc(OC)c(OC)c(OC)c3)cc(OC)c2OC)cc1 [13a] was tested on MOLT-4; the reported log10(GI50) is 1.69

Observed log10(GI50), MOLT-4, COc1cc(/C=C\c2cc(OC)c(OC)c(OC)c2)cc(NS(=O)(=O)c2ccc(Cl)cc2)c1OC [13c] : 2.83
